Protein target, amino acids: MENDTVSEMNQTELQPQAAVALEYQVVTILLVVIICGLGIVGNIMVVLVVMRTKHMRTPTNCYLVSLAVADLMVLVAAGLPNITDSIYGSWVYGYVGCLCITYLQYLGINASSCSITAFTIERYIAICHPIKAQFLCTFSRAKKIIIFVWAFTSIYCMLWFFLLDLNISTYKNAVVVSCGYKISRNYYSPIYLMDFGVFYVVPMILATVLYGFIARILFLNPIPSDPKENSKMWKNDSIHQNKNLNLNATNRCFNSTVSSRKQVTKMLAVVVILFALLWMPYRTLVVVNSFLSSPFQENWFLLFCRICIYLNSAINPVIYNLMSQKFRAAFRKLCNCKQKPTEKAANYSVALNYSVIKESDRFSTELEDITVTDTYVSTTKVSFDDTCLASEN
property: pKi
Entry type: numeric. Quantity: pKi, the -log10 of concentration in molar units.

[
  {
    "line_notation": "CCn1cnc(C[C@H](NC(=O)[C@@H]2CCC(=O)C2)C(=O)N2CCC[C@H]2C(N)=O)c1",
    "pKi": 7.00
  }
]

Read the next record carefully.
Input CCCn1cnc(C[C@H](NC(=O)[C@@H]2CCC(=O)C2)C(=O)N2CCC[C@H]2C(N)=O)c1 . Output pKi: 5.09
